Assayed target: PDE10A (Homo sapiens (Human))
Sequence (Q9Y233 whole entry, species assumed): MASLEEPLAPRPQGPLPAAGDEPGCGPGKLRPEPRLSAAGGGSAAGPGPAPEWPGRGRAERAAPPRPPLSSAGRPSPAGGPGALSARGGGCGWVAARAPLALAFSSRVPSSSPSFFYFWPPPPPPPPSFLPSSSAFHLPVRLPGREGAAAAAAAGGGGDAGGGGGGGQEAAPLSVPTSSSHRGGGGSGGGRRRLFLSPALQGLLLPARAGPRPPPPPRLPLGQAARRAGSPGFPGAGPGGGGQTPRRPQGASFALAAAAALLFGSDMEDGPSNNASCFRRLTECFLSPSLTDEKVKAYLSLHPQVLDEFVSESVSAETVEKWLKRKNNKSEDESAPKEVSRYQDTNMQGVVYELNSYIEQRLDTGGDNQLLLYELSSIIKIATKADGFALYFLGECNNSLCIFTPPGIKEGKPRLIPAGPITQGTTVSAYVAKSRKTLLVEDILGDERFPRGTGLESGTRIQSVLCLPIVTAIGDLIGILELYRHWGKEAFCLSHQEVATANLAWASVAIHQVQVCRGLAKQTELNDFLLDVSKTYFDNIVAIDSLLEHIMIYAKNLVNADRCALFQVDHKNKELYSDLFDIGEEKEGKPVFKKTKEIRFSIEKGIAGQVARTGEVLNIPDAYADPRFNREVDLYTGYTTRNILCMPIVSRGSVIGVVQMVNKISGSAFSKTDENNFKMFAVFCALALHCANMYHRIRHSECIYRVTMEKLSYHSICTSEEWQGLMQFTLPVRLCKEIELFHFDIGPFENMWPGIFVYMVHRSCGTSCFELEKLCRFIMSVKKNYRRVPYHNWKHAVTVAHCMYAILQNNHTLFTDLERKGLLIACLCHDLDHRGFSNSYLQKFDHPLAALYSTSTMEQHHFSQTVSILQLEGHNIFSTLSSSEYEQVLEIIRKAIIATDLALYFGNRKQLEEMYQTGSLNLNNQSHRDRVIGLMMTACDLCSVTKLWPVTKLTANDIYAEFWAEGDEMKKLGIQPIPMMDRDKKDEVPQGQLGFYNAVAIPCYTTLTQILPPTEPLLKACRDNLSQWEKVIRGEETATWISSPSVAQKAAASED
Assay: Measurement of PDE activity (recombinant PDE, cAMP HTRF)
Settings: 20 nM cyclic nucleotide substrate, 60 minutes at 29 C
Description: a) Measurement of PDE Activity The recombinant PDE proteins are used in in vitro enzymatic reaction for measurement of PDE activity. These recombinant proteins, including PDE10A (human, rat and mouse PDE10) and isoforms of PDEs 1, 3, 4, and 5, were purchased from commercial vendor BPS Bioscience. The enzymatic activity of PDEs was determined by cAMP measurement kit from CisBio (IBA) using HTRF technology. […]
pIC50: −log10 of the molar value.
Recorded measurements of pIC50, one per entry

Solved cases below.
CCn1cc(C(=O)NCc2cc(F)cc(F)c2)c2cc(OC)c(OC)cc2c1=O ... 6.70 to 7.00
CCn1cc(C(=O)NC2CCc3sccc32)c2cnc(OC)cc2c1=O (stereo not shown) ... 6.70 to 7.00
CCn1cc(C(=O)N[C@@H](C)c2ccc(C)cc2)c2cc(OC)c(OC)cc2c1=O ... 6.30 to 6.70
CCC(CC)n1cc(C(=O)NC2CCc3ncccc32)c2cc(OC)c(OC)cc2c1=O (single isomer, unassigned; (-)) [Example 200] ... 6.30 to 6.70
CCC(CC)n1cc(C(=O)NCc2ccoc2C)c2cc(OC)c(OC)cc2c1=O ... 6.30 to 6.70
CCn1cc(C(=O)NCc2ccccc2F)c2cc(OC)c(OC)cc2c1=O ... 6.30 to 6.70
CCC(CC)n1cc(C(=O)NCc2nncs2)c2cc(OC)c(OC)cc2c1=O ... 6.30 to 6.70
CCC(CC)n1cc(C(=O)NCc2nc(C)cs2)c2cc(OC)c(OC)cc2c1=O ... 6.70 to 7.00
CCCCNC(=O)c1cn(CC)c(=O)c2cc(OC)c(OCCc3ccc4ccccc4n3)cc12 ... > 7.00

// next item, pIC50 requested
Query :: Request body: readout pIC50, system PDE10A (Homo sapiens (Human)), query CCn1cc(C(=O)NCc2cccnc2)c2cc(OC)c(OC)cc2c1=O . Return the value.
Result :: 6.30 to 6.70

----------
Assayed target: PDE10A (Homo sapiens (Human))
Assay: Measurement of PDE activity (recombinant PDE, cAMP HTRF)
Settings: 20 nM cyclic nucleotide substrate, 60 minutes at 29 C
Quantity: IC50

Solved cases below.
CCn1cc(C(=O)NCc2cccc(C)c2)c2cc(OC)c(OC)cc2c1=O ... 100 to 200 nM
CCn1cc(C(=O)NC(C)CC(C)C)c2cc(OC)c(OC)cc2c1=O (stereo not drawn) ... 200 to 500 nM
CCn1cc(C(=O)NCc2ccc(C)c(F)c2F)c2cc(OC)c(OC)cc2c1=O ... 200 to 500 nM
CCn1cc(C(=O)NCc2ccc(C)cc2OC(C)(C)CC)c2cc(OC)c(OC)cc2c1=O ... 200 to 500 nM
CCC(CC)n1cc(C(=O)NCc2ncc(C)o2)c2cc(OC)c(OC)cc2c1=O ... 200 to 500 nM
CCn1cc(C(=O)NCc2ccc(OC)cc2)c2cc(OC)c(OC)cc2c1=O ... 200 to 500 nM
COc1cc2c(C(=O)NC3CCc4ccccc43)cn(C(C)C)c(=O)c2cc1OC (stereo not drawn) ... 200 to 500 nM
CCn1cc(C(=O)NCc2ccccc2C)c2cc(OC)c(OC)cc2c1=O ... 100 to 200 nM

Query :: Request body: readout IC50, system PDE10A (Homo sapiens (Human)), query CCn1cc(C(=O)Nc2ccc(C)cc2)c2cc(OC)c(OC)cc2c1=O . Return the value.
Result :: 100 to 200 nM

Query :: Request body: readout IC50, system PDE10A (Homo sapiens (Human)), query CCn1cc(C(=O)NCCC(C)(C)C)c2cc(OC)c(OC)cc2c1=O . Return the value.
Result :: 200 to 500 nM

Query :: Request body: readout IC50, system PDE10A (Homo sapiens (Human)), query CCC(C)Oc1cc(C)ccc1CNC(=O)c1cn(CC)c(=O)c2cc(OC)c(OC)cc12 (stereo not drawn) . Return the value.
Result :: 200 to 500 nM

Query :: Request body: readout IC50, system PDE10A (Homo sapiens (Human)), query CCn1cc(C(=O)NC2CCc3c(C)cccc32)c2cc(OC)c(OC)cc2c1=O (stereo not drawn) . Return the value.
Result :: 200 to 500 nM

----------
Recorded measurements of IC50, one per entry
Assayed target: UniProtKB Q9Y233
Assay: Measurement of PDE activity (recombinant PDE, cAMP HTRF)
Settings: 20 nM cyclic nucleotide substrate, 60 minutes at 29 C

CCC(CC)n1nc(C(=O)NC2CCc3ncccc32)c2cc(OC)c(OC)cc2c1=O (stereo not drawn) [Example 233] ... 100 to 200 nM
CCC(C)CNC(=O)c1cn(CC)c(=O)c2cc(OC)c(OC)cc12 (stereo not drawn) [Example 20] ... 200 to 500 nM

// next item, IC50 requested
Query :: Can you share its IC50? I mean this compound: CCC(CC)n1cc(C(=O)NCc2ccc(C)o2)c2cc(OC)c(OC)cc2c1=O [Example 251]
Result :: 100 to 200 nM
